Values from PubChem BioAssay

target: Albumin (Bos taurus); experiment: compounds binding labelled BSA control protein – biochemical, small-molecule microarray, Alexa647 label, 635/667 nm fluorescence, artefact control for SMM control protein annotation, profiling panel (AID 1118); details: BSA-A647 binding, fluorescence 635 nm, higher = more signal;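 note: score merges 667 nm emission intensity and signal-to-noise per printed compound spot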
readoutLabel: composite z-score
Reply with just the number.

Here are 7 molecules together with their reported answers.
molecule: Oc1ccc2cc[n+](Cc3cccc(OC(F)(F)F)c3)cc2c1
readoutLabel: composite z-score
numericValue: -0.192

molecule: CCOC(=O)C1=CC[C@@H](c2cccc(Cl)c2)N(S(=O)(=O)c2ccc(C)cc2)[C@H]1c1ccc(C#N)cc1
readoutLabel: composite z-score
numericValue: 1.01

molecule: O=C1O[C@@H](c2ccccc2)[C@@H](c2ccccc2)N2[C@@H](c3ccc(O)cc3)[C@]3(C(=O)Nc4ccc(C#CCCO)cc43)[C@@H](C(=O)N3CCCCCCC3)[C@H]12
readoutLabel: composite z-score
numericValue: -0.126

molecule: COCCOC(=O)N1C(=O)[C@@]2(c3cc(C#CCCO)ccc31)[C@H](c1ccc(O)cc1)N1[C@H](c3ccccc3)[C@H](c3ccccc3)OC(=O)[C@H]1[C@@H]2C(=O)N1CCCCCCC1
readoutLabel: composite z-score
numericValue: 0.0837

molecule: CC(C)OC(=O)C1=CCC(c2cccc(Cl)c2)O1 (stereo not drawn)
readoutLabel: composite z-score
numericValue: 0.569

molecule: CN1C(=O)C2C=CC(C(O)c3ccc(Br)cc3)N(Nc3ccccc3)C2C1=O (stereo not drawn)
readoutLabel: composite z-score
numericValue: 0.768

molecule: C=CCC(OC(C)=O)[C@@H]1[C@@H](N(Cc2ccc(-c3cccc(C(F)(F)F)c3)o2)C(=O)Cc2ccc(OC)cc2)c2cc(OCCCO)ccc2N1C(=O)Cc1ccc(OC)cc1 (stereo partly drawn)
readoutLabel: composite z-score
numericValue: 0.478

// below: composite z-score requested for another molecule
Recorded composite z-score for [N-]=[N+]=NCc1ccccc1C[C@]1(C(=O)NCC(O)CO)COC(c2ccc(OCCCO)cc2)=N1 (stereo partly drawn) , please?
1.03

====

test system: Neuregulin-1 EGF-like domain; test: small molecules binding NRG1 EGF domain – biochemical, small-molecule microarray, 635 nm fluorescence, primary screen (AID 1081); conditions: higher = more signal;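 note: binding of the protein to compounds printed on small-molecule microarray slides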
Form field: composite z-score (one value per entry).
Just the number, please.

GET /values?readout=composite z-score&item= "COC(=O)[C@@]1(Cc2ccc(OC)cc2)[C@H]2c3cc(C(=O)N4CCCC4)n(CCc4ccccn4)c3C[C@H]2CN1C(=O)c1ccccc1"
1.13

====

experiment: plasmodial surface anion channel blockers, osmotic lysis – cell-based, P. falciparum Indochina, OD700, 1 h, primary screen (AID 1154); conditions: P. falciparum Indochina infected RBC osmotic lysis, higher = more signal, called active from +8 up or from −8 down
readoutLabel: z-score
Please reply with the value in numeric form only.

compound: C=C(CCCC)C(=O)CC[C@H](OC(C)=O)c1ccc(CO)o1
z-score: 2.26

compound: COc1ccc([Si](C)(C)[C@H]2[C@H](CC(=O)N3Cc4ccccc4C[C@H]3CO)O[C@@]3(C(=O)N(Cc4cccc(I)c4)c4ccccc43)[C@@H]2C)cc1
z-score: 6.74

compound: O=c1cccc(-c2ccccc2)o1
z-score: 3.18

compound: O=C(NCC(F)(F)F)[C@@H]1c2ccccc2C(=O)N(Cc2ccccc2)[C@H]1c1ccc(CO)cc1
z-score: 0.878

compound: CN(C)CCCC[C@@H]1NC(=O)[C@H]2C[C@@H](C(=O)NCCCCCNC(=O)CS)[C@@H](c3ccc(O)cc3)N2C1=O
z-score: 0.93

// z-score lookup, key: "CCCC[C@H]1C[C@@H]1[C@@H]1N(P(=O)(c2ccccc2)c2ccccc2)[C@](CO)(c2ccccc2)CC12CC2"
4.95

Would you mind doing "COC(=O)[C@@]1(Cc2ccc(OC)cc2)[C@H]2c3cc(C(=O)N4CCCC4)n(CCN4CCOCC4)c3C[C@H]2CN1C(=O)c1ccccc1" as well?
0.32

====

Each entry below carries its reported composite z-score.
biological target: Dihydroorotate dehydrogenase (quinone), mitochondrial (Plasmodium falciparum (isolate 3D7)) (UniProt Q08210); assay: inhibition of P. falciparum DHODH – biochemical, C-terminal His tag, absorbance 600 nm, primary screen (AID 1175); details: PfDHODH enzyme, DCIP absorbance 600 nm; higher = more signal, called active from +8 up or from −8 down;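 note: recombinant parasite enzyme with a five histidine tag at its C terminus; test concentration not given here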
Sequence (Q08210 whole entry, looked up): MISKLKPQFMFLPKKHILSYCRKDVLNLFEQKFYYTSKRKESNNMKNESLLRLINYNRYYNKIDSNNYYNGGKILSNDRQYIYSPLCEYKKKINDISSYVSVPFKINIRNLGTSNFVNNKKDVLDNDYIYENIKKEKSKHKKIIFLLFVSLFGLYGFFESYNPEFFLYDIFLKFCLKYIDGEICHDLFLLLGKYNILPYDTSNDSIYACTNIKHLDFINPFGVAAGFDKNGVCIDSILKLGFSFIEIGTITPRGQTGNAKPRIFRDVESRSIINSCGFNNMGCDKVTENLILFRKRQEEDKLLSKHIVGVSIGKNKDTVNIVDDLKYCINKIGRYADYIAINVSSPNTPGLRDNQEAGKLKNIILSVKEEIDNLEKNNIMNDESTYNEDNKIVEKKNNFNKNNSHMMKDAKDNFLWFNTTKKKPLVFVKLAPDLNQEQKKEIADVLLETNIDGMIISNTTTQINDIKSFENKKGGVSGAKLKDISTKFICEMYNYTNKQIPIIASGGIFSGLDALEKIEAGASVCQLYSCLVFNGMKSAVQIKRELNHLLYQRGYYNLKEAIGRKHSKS
Lab note: record just the number, no unit beside it.

For orientation, consider the following solved cases.
compound: C=CCC(OC(C)=O)[C@@H]1[C@@H](N(Cc2ccc(-c3ccccc3)cc2)C(=O)c2ccc(C)cc2)c2cc(OCCCO)ccc2N1C(=O)c1ccc2ccccc2n1 (stereo not given in full)
composite z-score: -0.772

compound: COc1ccc(CCNC(=O)[C@@]2(C)c3ccccc3C(=O)N(Cc3ccccc3)[C@H]2c2ccc(CO)cc2)cc1
composite z-score: -0.984

compound: COC(=O)[C@@]1(Cc2ccc(OC)cc2)[C@H]2c3cc(C(=O)N4CCCC4)n(CCN4CCOCC4)c3C[C@H]2CN1C(=O)c1ccccc1
composite z-score: -1.33

Find the recorded composite z-score belonging to "CCCC[C@@H]1C[C@H]1[C@@H](NC(=O)c1ccco1)c1ccccc1" and report it.
-1.19

# iterate: "COc1ccc(C#Cc2ccc3c(c2)[C@]2(C(=O)N3)[C@H](C(=O)N3CCc4cc(OC)c(OC)cc4C3)[C@H]3C(=O)O[C@H](c4ccccc4)[C@H](c4ccccc4)N3[C@@H]2c2ccc(OCCO)cc2)cc1"
-1.04

Now the same for "CN(C)CCCC[C@@H]1NC(=O)[C@@H]2C[C@H](C(=O)NCCCCCCN)[C@H](c3ccc(O)cc3)N2C1=O"
-2.06

// next record "[N-]=[N+]=NCc1ccccc1C[C@]1(C(=O)NCCN2CCOCC2)N=C(c2ccc(OCCCO)cc2)O[C@H]1c1ccccc1CN=[N+]=[N-]"
1.31

Also need "COc1ccc([Si](C)(C)[C@H]2[C@H](CCO)O[C@@]3(C(=O)N(Cc4cccc(N5C(=O)c6cccc7cccc5c67)c4)c4ccccc43)[C@@H]2C)cc1" , thanks.
0.763

Proceed to "CC(=O)NCCCC[C@@H]1NC(=O)[C@@H]2C[C@H](C(=O)NCCCCCC[N+](C)(C)C)[C@H](c3cccc(OCCO)c3)N2C1=O"
-0.908

Thanks! And "CC[C@@H]1C=C(C(=O)O)[C@H](c2ccc(C(C)C)cc2)N1S(=O)(=O)c1ccc(C)cc1" ?
-0.976

====

assay: compounds binding Alexa647 anti-His antibody – biochemical, small-molecule microarray, 635 nm fluorescence, artefact control for SMM control protein annotation, primary screen (AID 1128); details: higher = more signal;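 note: score merges feature fluorescence with signal-to-noise for each printed compound spot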
readoutLabel: composite z-score
// keep it numeric: no unit symbol after the value

compound: CN1C(=O)C2C=CC(C(O)C3=C[C@H]4C[C@@H](C3)C4(C)C)N(Nc3ccc([N+](=O)[O-])cc3[N+](=O)[O-])C2C1=O (stereo not given in full)
composite z-score: 1.45

State the recorded composite z-score for this entry: "Cc1ccc(N2C(=O)c3ccccc3[C@@H](C(=O)NCC(C)C)[C@@H]2c2ccc(CO)cc2)nc1"
0.0133

Then what about the compound "CCCC[C@H]1OB(O)C[C@H]2C1=C(C)Cn1c(=O)n(-c3ccccc3)c(=O)n12" ?
0.247

Similarly, "C=CCOC(=O)[C@@H]1[C@H]2C(=O)O[C@H](c3ccccc3)[C@H](c3ccccc3)N2[C@H](c2ccc(OCCOC(=O)[C@H]3C[C@H]4C(=O)N[C@@H](Cc5ccccc5)C(=O)N4[C@H]3c3ccc(O)cc3)cc2)[C@@]12C(=O)Nc1ccc(I)cc12" ?
1.77

Same read-out for C=CCC(OC(C)=O)[C@@H]1[C@@H](N(Cc2ccc(-c3ccccc3)cc2)C(=O)c2ccc(C)cc2)c2cc(OCCCO)ccc2N1C(=O)Cc1ccc(OC)cc1 (stereo not given in full) ?
-0.109

Thanks! And "C=CCOC(=O)[C@@H]1[C@H]2C(=O)O[C@H](c3ccccc3)[C@H](c3ccccc3)N2[C@H](c2ccc(OCCOC(=O)[C@H]3C[C@H]4C(=O)N[C@@H](CC(C)C)C(=O)N4[C@H]3c3cccc(OCCO)c3)cc2)[C@@]12C(=O)Nc1ccc(I)cc12" ?
2.26

Cool, now CCOC1=C2C(c3ccc(C)cc3)N(S(=O)(=O)c3ccc(C)cc3)CC2n2c(=O)n(-c3ccccc3)c(=O)n2C1 (stereo not given)
0.229

====

assay: probe aWnt5a binding to arrayed compounds – biochemical, biotinylated probe, 635/667 nm fluorescence, primary screen (AID 1113); conditions: small-molecule microarray, higher = more signal;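 note: score merges 667 nm fluorescence intensity with signal-to-noise per printed feature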
readoutLabel: composite z-score
Number, no unit, nothing else.

compound: CN1C(=O)C2C=CC(C(O)c3ccc(Br)cc3)N(Nc3ccccc3)C2C1=O (stereo not drawn)
composite z-score: -0.124

Suppose we examine the compound "O=C1[C@H]2C=C(Br)[C@H](C[C@@H]2OCCOCCO)[C@@]12CO2" ; what composite z-score value has been reported?
-0.0944

Next: "CCCNC(=O)[C@@]1(c2ccc([N+](=O)[O-])cc2)CC(=O)N(CC23CC4CC(CC(C4)C2)C3)[C@@H]1c1ccc(CO)cc1I"
-0.0303

Repeat for the following compound: O=C(NCC(O)CO)[C@@]1(Cc2ccccc2)COC(c2ccc(OCCCO)cc2)=N1 (stereo partly drawn)
-0.0704

Do the same for "COCCOC(=O)N1C(=O)[C@@]2(c3ccccc31)[C@H](C(=O)N1CCCCCCC1)[C@H]1C(=O)O[C@H](c3ccccc3)[C@H](c3ccccc3)N1[C@@H]2c1ccccc1OCCO" please
0.883

Also "[N-]=[N+]=NCc1ccccc1C[C@]1(C(=O)NCc2ccccc2)COC(c2ccc(OCCCO)cc2)=N1" ?
0.027

What about this compound? "[N-]=[N+]=NCc1ccccc1[C@@H]1OC(c2ccc(OCCCO)cc2)=N[C@]1(Cc1ccccc1N=[N+]=[N-])C(N)=O"
-0.0478

Next entry: "C=C[C@H](C)[C@H](OC(=O)Nc1ccc(OC)cc1)c1ccc(O)c2ccccc12"
-0.129
